Ref: paper PMC9695356

assay: clinical; conditions: male, human, in vivo, sc, 3.6 mg

compound	output.unit	level at 16 day of a 28-day dosing cycle
CC(C)C[C@H](NC(=O)[C@@H](COC(C)(C)C)NC(=O)[C@H](Cc1ccc(O)cc1)NC(=O)[C@H](CO)NC(=O)[C@H](Cc1c[nH]c2ccccc12)NC(=O)[C@H](Cc1cnc[nH]1)NC(=O)[C@@H]1CCC(=O)N1)C(=O)N[C@@H](CCCNC(=N)N)C(=O)N1CCC[C@H]1C(=O)NNC(N)=O [Goserelin, Goserelin acetate]	µg/mL	0.0162

----------
assay: clinical; settings: male, human, in vivo, sc, 10.8 mg
recorded.metric: level at 10 day of an 84-day dosing cycle (ng/mL)

molecule	value.reported
CC(C)C[C@H](NC(=O)[C@@H](COC(C)(C)C)NC(=O)[C@H](Cc1ccc(O)cc1)NC(=O)[C@H](CO)NC(=O)[C@H](Cc1c[nH]c2ccccc12)NC(=O)[C@H](Cc1cnc[nH]1)NC(=O)[C@@H]1CCC(=O)N1)C(=O)N[C@@H](CCCNC(=N)N)C(=O)N1CCC[C@H]1C(=O)NNC(N)=O [Goserelin, Goserelin acetate]	7.81

----------
assay: clinical; conditions: male, human, in vivo, sc, 10.8 mg
recorded.metric: level at 29 day of an 84-day dosing cycle (ng/mL)

compound	value.reported
CC(C)C[C@H](NC(=O)[C@@H](COC(C)(C)C)NC(=O)[C@H](Cc1ccc(O)cc1)NC(=O)[C@H](CO)NC(=O)[C@H](Cc1c[nH]c2ccccc12)NC(=O)[C@H](Cc1cnc[nH]1)NC(=O)[C@@H]1CCC(=O)N1)C(=O)N[C@@H](CCCNC(=N)N)C(=O)N1CCC[C@H]1C(=O)NNC(N)=O [Goserelin, Goserelin acetate]	13.6

----------
experiment: clinical; settings: male, human, in vivo, sc, 3.6 mg

compound	output.unit	level at 8 day of a 28-day dosing cycle
CC(C)C[C@H](NC(=O)[C@@H](COC(C)(C)C)NC(=O)[C@H](Cc1ccc(O)cc1)NC(=O)[C@H](CO)NC(=O)[C@H](Cc1c[nH]c2ccccc12)NC(=O)[C@H](Cc1cnc[nH]1)NC(=O)[C@@H]1CCC(=O)N1)C(=O)N[C@@H](CCCNC(=N)N)C(=O)N1CCC[C@H]1C(=O)NNC(N)=O [Goserelin, Goserelin acetate]	ng/mL	0.95
